Cited source: ChEMBL document CHEMBL3885881

This section presents compounds with their documented POTASSIUM values.
species: Rattus norvegicus; assay: DrugMatrix - Regimen: Daily Repeat; format: toxicity, organism-based, Sprague-Dawley; set-up: regimen Daily Repeat, gender Male, age 6-8 weeks; settings: in vivo, po, 0 mg/kg, 72 h, tissue Plasma, route oral GAVAGE, dose level Control, time 3 day, […]

| compound | measurement-unit | POTASSIUM |
| --- | --- | --- |
| S=C=Nc1cccc2ccccc12 [1-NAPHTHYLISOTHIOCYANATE] | MEQ/L | 5.43 |
| CCOC(=O)C1=C(C)NC(C)=C(C(=O)OC)C1c1cccc([N+](=O)[O-])c1 (stereo not drawn) | MEQ/L | 6.38 |
| CC(C)Cc1ccc(C(C)C(=O)O)cc1 (stereo not drawn) | MEQ/L | 5.79 |
